Catalogue of binders with associated Kd
# tgt: T1, human TF extracellular domain protein (TF-ECD, Met 1-Glu 251) (human, UniProt P13726 33-251)
# T1 construct: range 1-251; also called human TF-ECD; not shown: His tag (protein captured on an NTA sensor as 'FDYKSD-01-His')
# experiment-description: ForteBio OCTET R2; His-tagged antigen on NTA sensor, nanobody-Fc 25-1.56 nM in solution, 25°C
The reply should read as a number followed by its unit.

| binder | result-type | measurement |
| --- | --- | --- |
| 5-H3-FC1 (chimeric nanobody: 5-H3 VHH fused with human Fc mutant fragment FC1) (Fc fusion, built from the VHH and FC1) QVQLVESGGGLVQPGGSLRLSCVASGFTLANYAIGFYRRAPGKGREGVSCISRSDGDTYHVDSVKGRFTVSRDNAKNTAYLQMNSLVPEDTGVYYCRATEWCGVQDPHGYWGQGTQVTVSSEPKSSDKTHTCPPCPAPEFEGGPSVFLFPPKPKDTLMISRTPEVTCVVVDVSHEDPEVKFNWYVDGVEVHNAKTKPREEQYNSTYRVVSVLTVLHQDWLNGKEYKCKVSNKALPASIEKTISKAKGQPREPQVYTLPPSRDELTKNQVSLTCLVKGFYPSDIAVEWESNGQPENNYKTTPPVLDSDGSFFLYSKLTVDKSRWQQGNVFSCSVMHEALHNHYTQKSLSLSPGK | Kd | 450 pM |

The binder listed as 4-C05-FC1 (chimeric nanobody: 4-C05 VHH fused with human Fc mutant fragment FC1) (Fc fusion, built from the VHH and FC1) QVQLVESGGGLVQPGGSLRLSCAASGFTLDTYAIGWIRQAPGKEREGVSCISSTDGSTYYAASVKGRFTINRDNAKNTVYLQMNSLKPEDTAVYYCAAGPGTDCPLRFDYWGQGIQVTVSSEPKSSDKTHTCPPCPAPEFEGGPSVFLFPPKPKDTLMISRTPEVTCVVVDVSHEDPEVKFNWYVDGVEVHNAKTKPREEQYNSTYRVVSVLTVLHQDWLNGKEYKCKVSNKALPASIEKTISKAKGQPREPQVYTLPPSRDELTKNQVSLTCLVKGFYPSDIAVEWESNGQPENNYKTTPPVLDSDGSFFLYSKLTVDKSRWQQGNVFSCSVMHEALHNHYTQKSLSLSPGK shows Kd equal to 200 pM
